assay details: Volume of distribution in rat following administration of 10 mg/kg, p.o. and 5 mg/kg, i.v.
Type: ADME, organism-based
measurement setup: in vivo, iv
parameter: Vd (L/kg)
Provide the reading as a plain figure in L/kg.

Briefly, Vd measured for CCCC(CCC)N1CCc2nn(-c3ccc(Cl)cc3Cl)c3nc(C)cc1c23 : 44

* * *

assay details: Bioavailability in rat following administration of 10 mg/kg, p.o. and 5 mg/kg, i.v.
Assay type: ADME, organism-based
measurement setup: in vivo, po
parameter: bioavailability (%)
Form entry: value (%) — number only.

For CCCC(CCC)N1CCc2nn(-c3ccc(Cl)cc3Cl)c3nc(C)cc1c23 the compound record lists bioavailability as 7

* * *

assay details: Half life in rat following administration of 2 mg/kg, p.o. and 1 mg/kg, i.v.
Assay type: ADME, organism-based
measurement setup: in vivo
Listed next: entries and their corresponding half-life.
Express it in h; write the number only.

{"compound": "CCC(CC)N1CCc2cn(-c3ccc(OC(F)(F)F)cc3C)c3nc(C)cc1c23", "units symbol": "h", "half-life": 33}

Now, please, on to the next compound.
The reported value for CCC(COC)N1CCc2cn(-c3c(C)cc(Cl)cc3C)c3nc(C)cc1c23 (configuration not stated) in terms of half-life is 2.5

* * *

target system: Corticotropin-releasing factor receptor 1 (Homo sapiens, UniProt P34998)
Sequence (P34998 whole entry): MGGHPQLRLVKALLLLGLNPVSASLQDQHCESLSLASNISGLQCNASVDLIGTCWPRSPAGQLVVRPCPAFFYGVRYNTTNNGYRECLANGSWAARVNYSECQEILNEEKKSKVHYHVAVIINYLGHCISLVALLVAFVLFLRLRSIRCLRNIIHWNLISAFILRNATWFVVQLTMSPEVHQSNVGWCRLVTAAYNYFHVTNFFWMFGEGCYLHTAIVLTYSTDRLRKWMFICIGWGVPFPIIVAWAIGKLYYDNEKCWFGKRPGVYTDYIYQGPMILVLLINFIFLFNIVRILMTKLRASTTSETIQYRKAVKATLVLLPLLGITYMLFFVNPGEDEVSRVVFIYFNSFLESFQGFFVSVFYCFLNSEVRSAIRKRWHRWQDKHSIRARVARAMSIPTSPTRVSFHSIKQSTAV
assay details: Inhibition of [125I]sauvagine binding to corticotropin releasing factor receptor 1 expressed in LtK- cells
Assay type: cell-based
parameter: log10(Ki) (log10 of the value in nM)
Please be aware that the numbers have been log10-transformed from Ki in nM.

{"molecule": "CCCCN(CC)c1nc(C)nc2c1c(C)c(C)n2-c1c(C)cc(C)cc1C [ANTALARMIN]", "recorded measurement": 0.49}

Record CCCC(CCC)N1CCc2cn(Cc3ccc(Cl)cc3C)c3nc(C)cc1c23 , field log10(Ki): 3.28

The recorded log10(Ki) for entry CCCC(CCC)N1CCc2cn(-c3ccc(OC)cc3C)c3nc(C)cc1c23 equals 0.81

Sure, the documented log10(Ki) for CCCC(CCC)N1CCc2cn(-c3ccc(Cl)cc3Cl)c3nc(C)cc1c23 is 0.62

Field log10(Ki) (entry CCCC(CCC)N1CCc2cn(-c3ccc(C#N)cc3Cl)c3nc(C)cc1c23 ) reads 0.86

Reported log10(Ki) ( CCC(COC)N1CCc2cn(-c3c(C)cc(Cl)cc3C)c3nc(C)cc1c23 (stereo not given) ) = 1.20

GET /value?item= CCCC(CCC)N1CCc2cn(-c3cccc(OC)c3)c3nc(C)cc1c23 &field=log10(Ki) returns 2.28

Entry CCCC(CCC)N1CCc2cn(-c3ccc(S(C)(=O)=O)cc3Cl)c3nc(C)cc1c23 , log10(Ki) reported as 1.11

Given item COCC(COC)N1CCc2cn(-c3ccc(Cl)cc3C#N)c3nc(C)cc1c23 , the value recorded as its log10(Ki) is 2.08

// CCCC(CCC)N1CCc2cn(-c3ccc(C)cc3)c3nc(C)cc1c23 : log10(Ki) value = 1.48
